- test-name: Dog PK study
- Assay type: in vivo, beagle dogs
- conditions-used: male, beagle, dog, in vivo, po, 10 mg/kg
value-type: AUC(0-inf) (ng·h/mL)
Give the value, in units of ng·h/mL, as a plain number.

{"columns": ["compound", "value-type", "value-reported"],
 "data": [
  ["CS(=O)(=O)c1ccc2c(c1)N(CCCN1CCC(C(N)=O)CC1)c1ccccc1S2 [MPZ, metopimazine]", "AUC(0-inf)", 3190]
]}

Prompt: Fill in: AUC(0-inf) of CS(=O)(=O)c1ccc2c(c1)N(CCCN1CCC(C(=O)O)CC1)c1ccccc1S2 [MPZA, metopimazine acid] is ___
Response: 1030
